src = patent US20240059799A1

# target-under-test: T1, recombinant human TL1A (human, UniProt O95150 71-251)
# T1 construct: homotrimer; biotinylated for SPR capture; the ELISA paragraphs say only 'recombinant TL1A'; also called TNFSF15
# T1 chain: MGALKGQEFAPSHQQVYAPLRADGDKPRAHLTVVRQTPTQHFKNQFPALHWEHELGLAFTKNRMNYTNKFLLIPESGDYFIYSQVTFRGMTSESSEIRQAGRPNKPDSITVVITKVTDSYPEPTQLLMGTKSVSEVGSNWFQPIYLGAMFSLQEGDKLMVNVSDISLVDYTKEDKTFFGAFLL
# assay-procedure: competition ELISA vs bio-TL1A-0002
measure: Bioactivity relative to TL1A-0002

INSERT INTO assay_data (binder, measure, data_value) VALUES
  ('TL1A-0073 (antibody, IgG1, V domains shown, IgG1/kappa variant of TL1A-0002) VH: QVQLVQSGAEVKKPGASVKVSCKASGYDFTYYGISWVRQAPGQGLEWMGWISTYNTNTHYAQKLQGRVTMTTDTSTRTAYMELRSLRSDDTAVYYCARENYYGSGAYRGGMDVWGQGTTVTVSS VL: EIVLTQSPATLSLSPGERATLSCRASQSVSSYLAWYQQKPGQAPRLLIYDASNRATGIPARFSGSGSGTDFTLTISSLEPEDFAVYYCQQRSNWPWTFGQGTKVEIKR', 'Bioactivity relative to TL1A-0002', '1.1 fold'),
  ('TL1A-0030 (antibody, IgG1, V domains shown, IgG1/kappa variant of TL1A-0002) VH: QVQLVQSGAEVKKPGASVKVSCKASGYDFTYYGISWVRQAPGQGLEWMGWISTYNGNTHYARMLQGRVTMTTDTSTRTAYMELRSLRSDDTAVYYCARENYYGSGEYRGGMDVWGQGTTVTVSS VL: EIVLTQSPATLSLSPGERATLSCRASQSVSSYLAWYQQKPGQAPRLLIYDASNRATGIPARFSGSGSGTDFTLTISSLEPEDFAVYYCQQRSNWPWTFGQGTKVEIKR', 'Bioactivity relative to TL1A-0002', '1.4 fold'),
  ('TL1A-0094 (antibody, IgG1, V domains shown, IgG1/kappa variant of TL1A-0002) VH: QVQLVQSGAEVKKPGASVKVSCKASGYDFTYYGISWVRQAPGQGLEWMGWISTYNGNTHYARMLQGRVTMTTDTSTRTAYMELRSLRSDDTAVYYCARESYYGSGAYRGGMDVWGQGTTVTVSS VL: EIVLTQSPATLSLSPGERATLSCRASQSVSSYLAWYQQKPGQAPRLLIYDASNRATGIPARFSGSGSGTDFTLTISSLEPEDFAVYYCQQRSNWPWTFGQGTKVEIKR', 'Bioactivity relative to TL1A-0002', '1.2 fold'),
  ('TL1A-0063 (antibody, IgG1, V domains shown, IgG1/kappa variant of TL1A-0002) VH: QVQLVQSGAEVKKPGASVKVSCKASGYDFSYYGISWVRQAPGQGLEWMGWISTYNGNTHYARMLQGRVTMTTDTSTRTAYMELRSLRSDDTAVYYCARENYYGSGAYRGGMDVWGQGTTVTVSS VL: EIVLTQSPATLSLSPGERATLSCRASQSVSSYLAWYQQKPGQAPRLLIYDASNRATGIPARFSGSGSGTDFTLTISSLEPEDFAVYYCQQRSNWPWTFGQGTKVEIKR', 'Bioactivity relative to TL1A-0002', '0.9 fold'),
  ('TL1A-0167 (antibody, human IgG1, kappa, V domains shown, TL1A-0002 heavy chain with R(H76)S, TL1A-0002 light chain) VH: QVQLVQSGAEVKKPGASVKVSCKASGYDFTYYGISWVRQAPGQGLEWMGWISTYNGNTHYARMLQGRVTMTTDTSTSTAYMELRSLRSDDTAVYYCARENYYGSGAYRGGMDVWGQGTTVTVSS VL: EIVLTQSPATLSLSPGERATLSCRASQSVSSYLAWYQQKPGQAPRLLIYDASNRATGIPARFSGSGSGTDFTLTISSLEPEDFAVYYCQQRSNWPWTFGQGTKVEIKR', 'Bioactivity relative to TL1A-0002', '0.9 fold');
